Exercise: for every item that follows, state its recorded Luminescence.
system: HEK293T cells; assay: In vitro Luc-mRNA transfection, luciferase luminescence expression in HEK293T cells; assay type: cell-based, human; design: unit not given here; details: Table 16; HEK 293T cells, 125 ng/well, n=3

The examples below pair each entry with its known result.
CCCCCCCCCCCCCCOc1cc(COC(=O)CCCN2CCN(CCO)CC2)cc(OCCCCCCCCCCC)c1    119,405
CCCCCCCCCCCCCCCCOc1cc(COC(=O)CCCN2CCN(CCO)CC2)cc(OCCCCCCCCCCC)c1    443,836
CCCCCCCCCCCCCCCCCOc1cc(COC(=O)CCCN2CCN(CCO)CC2)cc(OCCCCCCCCCCC)c1    147,731
CCCCCCCCCCCCCOc1cc(COC(=O)CCCN2CCN(C)CC2)cc(OCCCCCCCCCCC)c1    192,213
CCCCCCCCCCCOc1cc(COC(=O)c2cc(OCCOCCOCCCC(=O)CCCN3CCCCC3)c(OCCOCCOCCOCc3ccccc3)c(OCCOCCOCCOC(=O)CCCN3CCCCC3)c2)cc(OCC(CC)CCCC)c1 (centres unmarked)    74
CCCCCCCCCCCCCCCOc1cc(COC(=O)CCCN2CCN(CCO)CC2)cc(OCCCCCCCCCC)c1    463,750
CCCCCCCCCCCCCCCOc1cc(COC(=O)CCCN2CCN(CCO)CC2)cc(OCCCCCCCCCCC)c1    565,906
CCCCCCCCCCCCOc1cc(COC(=O)CCCN2CCN(CCO)CC2)cc(OCCCCCCCCCCC)c1    145,115

Required: Luminescence, one value per molecule below.
1. CCCCCCCCCCCCCCOc1cc(COC(=O)CCCN2CCN(CCO)CC2)cc(OCCCCCCCCCCCCC)c1
2. CCCCCCCCCCCCCCCCCCOc1cc(COC(=O)CCCN2CCN(CCO)CC2)cc(OCCCCCCCCCCCCCCC)c1
3. CCCCCCCCCCCCCCCCCCOc1cc(COC(=O)CCCN2CCN(CCO)CC2)cc(OCCCCCCCCCCCCC)c1
4. CCCCCCCCCCCOc1cc(COC(=O)CCCN2CCN(CCO)CC2)cc(OCCCCCCCCC)c1
5. CCCCCCCCCCCCCCCCCOc1cc(COC(=O)CCCN2CCN(C)CC2)cc(OCCCCCCCCCCC)c1
6. CCCCCCCCCCCOc1cc(COC(=O)CCCN2CCN(CCO)CC2)cc(OCCCCCCCCCC)c1
7. CCCCCCCCCCCCCCCOc1cc(COC(=O)CCCN2CCN(CCO)CC2)cc(OCCCCCCCC)c1
8. CCCCCCCCCCCCCCCOc1cc(COC(=O)CCCN2CCN(C)CC2)cc(OCCCCCCCCCCCC)c1

1. 166,377
2. 17,871
3. 235,419
4. 55,101
5. 675
6. 390,021
7. 102,620
8. 71,851

###

system: liver; test: In vivo mRNA delivery, IVIS imaging of organs: liver; parameters: species or system mice; settings: Table 14; imaging 6 h after injection
READOUT_LABEL: Organs with luminescence: liver (weak/strong)

The examples below pair each entry with its known result.
CCCCCCCCOc1cc(COC(=O)CCCN2CCN(CCO)CC2)cc(OCCCCCCCC)c1    liver (weak),
CCCCC(CC)COc1cc(COC(=O)CCCN2CCN(CCO)CC2)cc(OCC(CC)CCCC)c1 (centres unmarked)    liver (weak),
CCCCCCCCCCCCCCCCCCOc1cc(COC(=O)CCCN2CCN(C)CC2)cc(OCCCCCCCCCCC)c1    liver (strong),
CCCCCCCCCCCCCCOc1cc(COC(=O)CCCN2CCN(C)CC2)cc(OCCCCCCCCCCC)c1    liver (strong),
CCCCCCCCOc1cc(COC(=O)CCCN2CCN(C)CC2)cc(OCCCCCCCC)c1    liver (weak),

Required: Organs with luminescence: liver (weak/strong), one value per compound below.
1. CCCCCCCCCCCCCCCCCCOc1cc(COC(=O)CCCN2CCN(C)CC2)cc(OCCCCCCCCCCCC)c1
2. CCCCC(CC)COC(=O)CCCCOc1cc(COC(=O)CCCN2CCN(CCO)CC2)cc(OCCCCC(=O)OCC(CC)CCCC)c1 (centres unmarked)
3. CCCCCCCCCCOc1cc(COC(=O)CCCN2CCN(CCO)CC2)cc(OCCCCCCCCCC)c1

1: liver (weak),; 2: liver (weak),; 3: liver (weak),
